// reported Kd per item
- target: yeast histone H3-H4 tetramer (Saccharomyces cerevisiae, UniProt P61830 1-136; P02309 1-103)
- assay: ITC; ITC200 at 20 °C; 0.5 mM ARB2 or mutant in the injector, 0.2 mM H2A/B or 0.25 mM H3/4 in the sample cell; 25 mM Tris-HCl pH 7.5, 200 mM NaCl; single-site fitting model
- condition description: both partners purified

{"binder": "ARB2 domain of Hda1 (Hda1^457–698) (domain or fragment, Saccharomyces cerevisiae, UniProt P53973 457-698, looked up, Hda1 (histone deacetylase), S. cerevisiae, C-terminal ARB2 domain, residues 457-698; Homodimer in the crystal (symmetry-related molecules) and by size-exclusion chromatography; A selenomethionine derivative was used for phasing only; also called Native-Hda1^457–698; wild-type ARB2 domain; source: E. coli BL21 (DE3), purified (Ni-NTA, HiTrap Q FF, Superdex 200)) LQKAIRQQQQHYLSDEFNFVTLPLVSMDLPDNTVLCTPNISESNTIIIVVHDTSDIWAKRNVISGTIDLSSSVIIDNSLDFIKWGLDRKYGIIDVNIPLTLFEPDNYSGMITSQEVLIYLWDNYIKYFPSVAKIAFIGIGDSYSGIVHLLGHRDTRAVTKTVINFLGDKQLKPLVPLVDETLSEWYFKNSLIFSNNSHQCWKENESRKPRKKFGRVLRCDTDGLNNIIEERFEEATDFILDS", "Kd (µM)": 3.24}
{"binder": "ARB2-M3 (residues Val481, Ser482, Met483 and Asp484 mutated to Ala) (domain or fragment, Saccharomyces cerevisiae, UniProt P53973 457-698, looked up, Hda1, S. cerevisiae, ARB2 domain, residues 457-698, with four substitutions around the groove; source: E. coli BL21 (DE3), purified (Ni-NTA, HiTrap Q FF, Superdex 200)) LQKAIRQQQQHYLSDEFNFVTLPLAAAALPDNTVLCTPNISESNTIIIVVHDTSDIWAKRNVISGTIDLSSSVIIDNSLDFIKWGLDRKYGIIDVNIPLTLFEPDNYSGMITSQEVLIYLWDNYIKYFPSVAKIAFIGIGDSYSGIVHLLGHRDTRAVTKTVINFLGDKQLKPLVPLVDETLSEWYFKNSLIFSNNSHQCWKENESRKPRKKFGRVLRCDTDGLNNIIEERFEEATDFILDS", "Kd (µM)": 8.19}
{"binder": "ARB2-M2 (residues Tyr468 and Glu472 mutated to Ala) (domain or fragment, Saccharomyces cerevisiae, UniProt P53973 457-698, looked up, Hda1, S. cerevisiae, ARB2 domain, residues 457-698, with two substitutions around the groove; source: E. coli BL21 (DE3), purified (Ni-NTA, HiTrap Q FF, Superdex 200)) LQKAIRQQQQHALSDAFNFVTLPLVSMDLPDNTVLCTPNISESNTIIIVVHDTSDIWAKRNVISGTIDLSSSVIIDNSLDFIKWGLDRKYGIIDVNIPLTLFEPDNYSGMITSQEVLIYLWDNYIKYFPSVAKIAFIGIGDSYSGIVHLLGHRDTRAVTKTVINFLGDKQLKPLVPLVDETLSEWYFKNSLIFSNNSHQCWKENESRKPRKKFGRVLRCDTDGLNNIIEERFEEATDFILDS", "Kd (µM)": 6.93}
{"binder": "ARB2-M1 (residues Gln463, His467 and Asp471 mutated to Ala) (domain or fragment, Saccharomyces cerevisiae, UniProt P53973 457-698, looked up, Hda1, S. cerevisiae, ARB2 domain, residues 457-698, with three substitutions around the groove; source: E. coli BL21 (DE3), purified (Ni-NTA, HiTrap Q FF, Superdex 200)) LQKAIRAQQQAYLSAEFNFVTLPLVSMDLPDNTVLCTPNISESNTIIIVVHDTSDIWAKRNVISGTIDLSSSVIIDNSLDFIKWGLDRKYGIIDVNIPLTLFEPDNYSGMITSQEVLIYLWDNYIKYFPSVAKIAFIGIGDSYSGIVHLLGHRDTRAVTKTVINFLGDKQLKPLVPLVDETLSEWYFKNSLIFSNNSHQCWKENESRKPRKKFGRVLRCDTDGLNNIIEERFEEATDFILDS", "Kd (µM)": 9.84}
